Tested on: Caco-2
ASSAY_NAME: cell viability relative to DMSO; higher = less toxic
CONDITION_DETAILS: 72 h; 1 nM
MEASURED_METRIC: cell viability (%)
Record the value in %, omitting the unit from your answer.

{"COMPOUND": "CCCC(=O)C1(c2ccccc2)CCN(C(=O)[C@@H](Cc2ccc(OC)cc2)NC(=O)[C@@H](N)Cc2cncn2C)CC1", "READOUT_VALUE": 108}
{"COMPOUND": "Cc1c(C)c2c(c(C)c1OC(=O)CCC(=O)O)CC[C@@](C)(CCC[C@H](C)CCC[C@H](C)CCCC(C)C)O2 [D-alpha-tocopheryl-succinate]", "READOUT_VALUE": 98.2}
{"COMPOUND": "O=C(CNC(=O)c1cccc(C(F)(F)F)c1)N[C@@H]1CCN(Cc2ccc(Cl)cc2)C1 [teijin-compound-1]", "READOUT_VALUE": 113}
{"COMPOUND": "Cc1ncc(-c2ccnc(Nc3ccc(S(C)(=O)=O)cc3)n2)n1C(C)C [AZD5438]", "READOUT_VALUE": 97.1}
{"COMPOUND": "O=C(NNC(=O)c1ccc(CNS(=O)(=O)c2ccc(F)c(Cl)c2)cc1)c1ccccc1 [TCN201]", "READOUT_VALUE": 109}
{"COMPOUND": "CCC(=O)OCC(=O)[C@@]1(OC(=O)CC)[C@H](C)C[C@H]2[C@H]3[C@H]([C@@H](O)C[C@@]21C)[C@@]1(C)C=CC(=O)C=C1C[C@H]3Cl [alclometasone-dipropionate]", "READOUT_VALUE": 97.3}

Consider now this further compound.
May I ask what cell viability has been recorded for O=C(O)c1cc(=O)c2ccccc2[nH]1 [kynurenic-acid] ? 94.9
